Data credit: patent US8952150B2

Provide the reported Inh (% of Ctl) 0.1 μM of each item.
assay.target: rat PGT (Rattus norvegicus (Rat), UniProt Q00910)
procedure.text: [3H]PGE2 uptake inhibition in MDCK cells stably transfected with rat PGT (percent inhibition and IC50)
Type: cell-based
test.conditions: 0.1 μM compound; inhibition of [3H]PGE2 uptake
Procedure: MDCK cells stably transfected with rat PGT (Endo et al., 2002) were seeded at 15-20% confluence on 24-well plates. The day on which the cells were seeded was considered day 1. PGE2 uptake experiments were conducted on day 4. All of the PGE2 uptake experiments were conducted at room temperature. […] 1.5 mL of scintillation solution was added to each well, and intracellular [^3H]PGE2 was counted by MicroBeta Counter. […] IC50 was calculated by fitting an equation of y=m1−m1*(m0/(m2+m0)).

Incoming: Reported Inh (% of Ctl) 0.1 μM for `O=C(NCCOCCNc1nc(Nc2ccc(O)cc2)nc(Nc2ccc(C(=O)NCc3ccccc3)cc2)n1)c1ccncc1` : what is it?
Outgoing: 13.2 % of Ctl

Incoming: Could you do the same for `O=C(O)c1cccc(Nc2nc(NCCOCCOCCNC(=O)c3ccccc3)nc(Nc3ccc(C(=O)NCc4ccc(F)cc4)cc3)n2)c1` , please?
Outgoing: 4.2 % of Ctl

Incoming: Could you do the same for `O=C(NCc1ccccc1)c1ccc(Nc2nc(NCCOCCNC(=O)c3ccccc3C(F)(F)F)nc(Nc3ccc(O)cc3)n2)cc1` , please?
Outgoing: 14.0 % of Ctl

Incoming: Could you do the same for `COC(=O)c1ccc(CNC(=O)c2ccc(Nc3nc(NCCOCCOCCNC(=O)c4ccccc4)nc(Nc4ccc(O)cc4)n3)cc2)cc1` , please?
Outgoing: 41.0 % of Ctl
